Assay target: T1, 4H891-AA
T1 chain: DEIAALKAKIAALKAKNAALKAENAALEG
Measurement description: two-hybrid library CCmax;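 further: natural log of median RNA to DNA barcode read ratio; higher means stronger binding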
Experimental context: mean of both orientations
Reported metric: interaction score

# Binder, Result value
measured = [
    ("DENAALKAEIAALEAKIAALKAENAALEG [4H1579-AA]", -1),
    ("DEIAALKAEIAALKAKNAALEAKIAALEG [4H629-AA]", -1.48),
]

P = DENAALKAKIAALEAKNAALEAEIAALKG [4H1842-AA]
Q = DEIAALKAEIAALEAKNAALKAEIAALKG [4H570-AA]
Ask: Which is greater in interaction score, the first item P or the second item Q ? Mark your answer with the label of the selected entry.
Reply: Q
(Q: -0.736, P: -1.42)
